Reference for the values: paper PMC8391922

molecular target: rat TRPV3 (Rattus norvegicus, UniProt Q4QYD9); construct: expressed in transfected cells; host or cells: HEK-293; experiment: TRPV3-mediated elevation of intracellular Ca2+ (Fluo-4) in transfected HEK-293 cells; assay type: cell-based; details: antagonist/desensitizing; compound added 5 min before agonist thymol 100 μM
Sequence (Q4QYD9 1-791): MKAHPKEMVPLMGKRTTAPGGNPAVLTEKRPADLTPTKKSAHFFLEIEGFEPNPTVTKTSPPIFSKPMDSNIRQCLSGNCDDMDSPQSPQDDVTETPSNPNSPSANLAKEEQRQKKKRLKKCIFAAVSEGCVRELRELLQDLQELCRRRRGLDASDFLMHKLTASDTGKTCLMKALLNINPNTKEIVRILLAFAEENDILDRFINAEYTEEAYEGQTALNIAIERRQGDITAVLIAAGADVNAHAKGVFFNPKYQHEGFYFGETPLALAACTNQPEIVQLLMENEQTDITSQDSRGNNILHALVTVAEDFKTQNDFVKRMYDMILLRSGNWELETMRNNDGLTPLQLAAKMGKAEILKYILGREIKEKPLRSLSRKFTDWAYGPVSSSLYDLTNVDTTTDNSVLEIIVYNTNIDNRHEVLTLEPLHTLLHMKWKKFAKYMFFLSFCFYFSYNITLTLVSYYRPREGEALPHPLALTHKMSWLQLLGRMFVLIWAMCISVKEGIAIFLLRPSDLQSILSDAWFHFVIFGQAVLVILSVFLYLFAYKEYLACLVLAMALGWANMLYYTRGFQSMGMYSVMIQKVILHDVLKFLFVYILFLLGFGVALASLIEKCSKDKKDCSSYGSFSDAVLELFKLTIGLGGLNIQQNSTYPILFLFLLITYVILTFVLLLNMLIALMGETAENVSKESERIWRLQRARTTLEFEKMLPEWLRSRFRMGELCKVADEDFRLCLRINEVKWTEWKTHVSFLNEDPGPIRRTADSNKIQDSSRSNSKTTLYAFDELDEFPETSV
Record form. Attribute: IC50. Fill in for each entry.

Quick one: give me IC50 for each item below, same order please.
1. CCCCCCCc1cc(O)c2c(c1)OC(C)(CCC=C(C)C)C=C2 (stereo not drawn) [8c, Depentyl-5-n-heptylcannabichromene]
2. CCCCCCC(C)(C)c1cc(O)c2c(c1)OC(C)(CCC=C(C)C)C=C2 (stereo not drawn) [8b]
3. CCCCC(C)(C)c1cc(O)c2c(c1)OC(C)(CCC=C(C)C)C=C2 (stereo not drawn) [8d]

> 100 µM
> 50 µM
> 100 µM
